Sourced from PubChem BioAssay AID1996

# solubility kinetic per record follows
Conditions: buffer; pH 7.4; 200.0 µM
measurement_type: solubility kinetic

COc1ccc(CNC(=O)C2CCN(C(=O)c3ccccc3)CC2)cc1 ... > 52.9 µg/mL
O=C(COC(=O)c1ccccc1O)NCc1ccco1 ... > 41.3 µg/mL
COc1cccc(N2CC(O)Cn3c2nc2c3c(=O)[nH]c(=O)n2C)c1 (centres undefined) ... > 51.5 µg/mL
CC(C)(C)C(=O)O/N=C(\N)c1ccc([N+](=O)[O-])s1 ... 8.2 µg/mL
O=C(/C=C/c1ccc([N+](=O)[O-])cc1)OCC(=O)N1CCOCC1 ... 10.1 µg/mL
Cn1c(SCC(=O)NC2CCS(=O)(=O)C2)nc2ccccc21 (centres undefined) ... > 50.9 µg/mL
S=C1NCN(Cc2cccnc2)CN1Cc1ccccc1 ... > 44.8 µg/mL
CC(=C\c1ccccc1)/C=C1/SC(=S)N(CCCC(=O)O)C1=O ... > 52.1 µg/mL
Cc1ccc(S(=O)(=O)N(C)C)cc1NC(=O)c1cccs1 ... 39.8 µg/mL
CC(C)OCCCNC(=O)CN1C(=O)c2cccc3cccc1c23 ... > 49 µg/mL
CN(C)S(=O)(=O)c1ccc(NC(=O)CN2CCCCCC2)cc1 ... 50.9 µg/mL
COC1CC(C)NC(=S)N1 (centres undefined) ... > 24 µg/mL
COc1ccc(CC(=O)O/N=C(\N)Cc2ccc([N+](=O)[O-])cc2)cc1 ... 5.6 µg/mL
CN(C)C(=O)c1cc([N+](=O)[O-])ccc1O ... > 31.5 µg/mL
CSc1ncc(Cl)c(C(=O)NCc2cccnc2)n1 ... > 44.2 µg/mL
CCN(CC)CCCNC(=O)/C=C/C(=O)O ... 31.2 µg/mL
COc1ccc(N2CCN(S(=O)(=O)c3cn(C)c(=O)n(C)c3=O)CC2)cc1 ... 17.9 µg/mL
COCCN(Cc1ccccc1)C(=O)C1CCN(C(=O)Nc2ccccc2)CC1 ... > 59.3 µg/mL
NC(=O)NCC(c1ccccc1)C1CCCCC1 (centres undefined) ... 33.4 µg/mL
CCCN(Cc1cc2cc(OC)ccc2[nH]c1=O)C(=O)c1ccco1 ... 45.2 µg/mL
Cc1ccc2c(c1)sc1ncc(NC(=O)c3ccc(F)cc3)c(=O)n12 ... < 0.3 µg/mL
Cc1ccc(NC2=CC(=O)C(=O)c3ccccc32)c(C)c1 ... 3.5 µg/mL
Cc1ccc(C(=O)N2C3=C(CCCC3)C(=O)NC23CCCCC3)cc1 ... 2.1 µg/mL
Cc1cc(Nc2cccc(F)c2)nc(N2CCOCC2)n1 ... 36.2 µg/mL
S=c1nc(NCc2ccc3c(c2)OCO3)c2ccccc2[nH]1 ... 0.6 µg/mL
O=C1NC2=C(C(=O)CCC2)C(c2ccc([N+](=O)[O-])cc2)N1 (centres undefined) ... > 43.1 µg/mL
COc1ccc(CNC(=O)CCC(=O)Nc2cccnc2)cc1 ... 42.3 µg/mL
COc1ccc(C(CNC(=O)c2cc(C)on2)N(C)C)cc1 (centres undefined) ... 45.3 µg/mL
CC(C)(C)c1ccc(C(=O)NC(=O)COC(=O)c2ccc(Br)o2)cc1 ... 12.5 µg/mL
O=C1NC(c2cc(Cl)cc([N+](=O)[O-])c2O)Nc2ccccc21 (centres undefined) ... > 48 µg/mL
O=C(CCCc1ccccc1)N1CCN(C2CCCCC2)CC1 ... 46.6 µg/mL
CCc1cccc(C)c1N1C(=O)CC(C)(C)CC1=O ... > 38.9 µg/mL
OCCN(Cc1ccccc1)C(=S)Nc1ccc(F)cc1 ... 43.1 µg/mL
CN(Cc1ccccc1)C(NC(=O)c1ccco1)C(Cl)(Cl)Cl (centres undefined) ... 28.2 µg/mL
Cc1cc(NC(=O)Nc2c[nH]c(=O)[nH]c2=O)ccc1Br ... 1.8 µg/mL
CCN1CCN(C(=O)/C(=C/c2cccs2)NC(=O)c2ccc(C)c(C)c2)CC1 ... 48.5 µg/mL
Cc1cc(=O)[nH]c(SCc2ccc(Cl)cc2Cl)n1 ... 1.2 µg/mL
COc1ccc(CCNC(=O)c2cc3cc(F)ccc3nc2C)cc1OC ... 2.3 µg/mL
CC1CCCCN1S(=O)(=O)c1csc(C(N)=O)c1 (centres undefined) ... > 43.3 µg/mL
CCCNC(=O)NC(=O)c1cnccc1C(F)(F)F ... 34.8 µg/mL
COc1ccccc1NC(=O)CN1C(=O)COc2ccc(C)cc21 ... 16.2 µg/mL
CCc1cccc(C)c1NC(=O)C1CC(=O)N(C2CCCC2)C1 (centres undefined) ... > 47.2 µg/mL
O=C(CN1C(=O)COc2ccc(Cl)cc21)NC1CC1 ... > 42.1 µg/mL
O=C1CN(C(=O)COc2ccc(F)cc2Cl)c2ccccc2N1 ... > 50.2 µg/mL
Cc1nc(NC(=O)CCl)sc1C(=O)N(C)C ... > 39.3 µg/mL
CN(C)CCn1cnc2ccccc21.Cl ... > 39.3 µg/mL
O=C(Nc1nc(-c2cccnc2)cs1)c1ccccc1F ... < 0.2 µg/mL
Cc1nc2c(c(=O)c3ccccc3n2C)c(=O)n1-c1ccccc1 ... 46.2 µg/mL
CCOc1cc(C(=S)N2CCCC2)ccc1O ... > 37.7 µg/mL

====

Conditions: buffer; pH 7.4; 200.0 µM
measurement_type: log10 of solubility kinetic (log10 of the value in µg/mL)

C/C(=N\O)c1ccn(S(=O)(=O)c2ccc(Cl)cc2)c1 ... 0.92
O=C(Cn1cc(/C=C\[N+](=O)[O-])c2ccccc21)Nc1ccccc1 ... 0.34
Cc1c(C(=O)OCC(=O)N(C)Cc2ccccc2)oc2ccccc12 ... 1.37
CC(=O)Nc1cccc(NC(=S)Nc2cccc(Cl)c2Cl)c1 ... 1.41
CC(Sc1ncccn1)C(=O)N1CCc2ccccc21 (centres undefined) ... 1.52
COC(=O)c1ccc(CSc2nc3ccccc3c(=O)n2C)o1 ... 0.65
CCOc1ccc(-c2nc(CCl)cs2)cc1.Cl ... 0.93
N#Cc1c(N)nc2c(c1-c1ccc(F)cc1)CCC2 ... 0.57
CC(C)(C)C(=O)N1CCN(c2ccc([N+](=O)[O-])cc2-n2cccc2)CC1 ... 0.15
Cc1ccccc1N1CCN(S(=O)(=O)c2cccs2)CC1 ... 0.60
O=C(Nc1cccc(S(=O)(=O)N2CCCCC2)c1)C1CCCC1 ... 1.61
Cc1nc(Nc2nc3ccccc3o2)nc(C)c1C ... 1.20
COc1ccc(-c2noc(-c3ccoc3C)n2)cc1OC ... -0.10
Cc1ccc(C(C)NC(=O)c2cccnc2)cc1 (centres undefined) ... 1.53
O=C1Nc2ccc(Cl)cc2C12OCCCO2 ... 0.51
CC(C)(C)Nc1c(-c2ccc(O)cc2)nc2ccc(Cl)cn12 ... -0.40
COc1ccc2[nH]cc(CCn3ccc(=O)c(C)c3C)c2c1 ... 1.63
CC(C)(C)NC(=S)N1CCC(C(=O)c2ccc(F)cc2)CC1 ... 0.72
CC(C)c1ccc(NC2=CC(=O)CC(C)(C)C2)cc1 ... 0.41
CN(C)c1ccc(CCc2ccc(N)cc2)cc1 ... 1.32

====

Settings: buffer; pH 7.4; 200.0 µM
# log10(solubility kinetic) per record follows
measurement_type: log10(solubility kinetic) (log10 of the value in µg/mL)

O=c1[nH]c(O)c(C=Nc2ccccc2Oc2ccccc2)c(=O)[nH]1 ... -0.10
O=C(Nc1cccnc1Cl)c1cc(-c2ccccc2O)on1 ... -0.05
Cc1ccc(NS(=O)(=O)c2ccc(NC(=O)C3CC3)cc2)cc1C ... 0.84
O=C(C1CCCCC1)N1CCc2ccccc21 ... 1.43
COc1ccc(-c2csc(NC(=O)c3ccccc3F)n2)cc1 ... -0.30
COc1ccc2cc(S(=O)(=O)N3CCCC3)ccc2c1 ... 0.54

====

Conditions: buffer; pH 7.4; 200.0 µM
measurement_type: solubility kinetic (µg/mL)

Cc1ccc(C(C)NC(=O)Cc2cccs2)c(C)c1 (stereo unspecified) ... 34.4
O=C(NC1CCCc2ccccc21)c1ccccc1OC(F)F (stereo unspecified) ... 15.5
Cc1ccccc1Nc1ccc2nonc2c1[N+](=O)[O-] ... 0.8
O=C(CC(=O)NCc1ccc(Cl)cc1)NCc1ccccc1 ... 7.1
O=C(CCCOc1ccc(Cl)cc1)NC1CCCCC1 ... 1.9
CCC(CC)C(=O)Nc1ccc(-c2cn3cccnc3n2)cc1 ... 43.4
C=CCNC(=S)N1CCC(Cc2ccccc2)CC1 ... 31.5
COc1cc2c(cc1OC)C(c1ccc([N+](=O)[O-])cc1)NC(=O)C2 (stereo unspecified) ... 45.6
Cc1cc(C)c(-c2c(O)c3cccnc3n(C)c2=O)c(C)c1 ... 43.4
O=C(CSc1ccc2c(c1)OCCO2)NCc1ccccc1 ... 44
COc1ccc(C)cc1S(=O)(=O)N1CCc2ccccc2C1 ... 18.1
Cc1ccc(C(=O)NCCN2CCOCC2)cc1C ... 38.1
O=C1COc2ccc(C(=O)COC(=O)c3ccccn3)cc2N1 ... 16.9
Nc1cc(C(F)(F)F)ccc1NCCc1ccccn1 ... 36.8
N/C(Cc1nc(-c2ccc(F)cc2)cs1)=N\O ... 36.4
Cc1ccc(-c2nc(C=Nc3cccc(C)c3)c(O)o2)cc1 ... 0.7
O=C(Nc1ccsc1C(=O)O)c1cccc(Oc2ccccc2)c1 ... 43.2
COc1ccc(NS(=O)(=O)c2ccc3c(c2)CCO3)cc1 ... 45
CCc1c(C)nc(SCC(=O)N2CCCCC2CC)[nH]c1=O (stereo unspecified) ... 44.6
CO/N=C/C=C1/N(C)c2ccccc2C1(C)C ... 19.4
Cc1ccc2nc(N3C(=O)CNC3=S)sc2c1 ... 11.9
COc1ccccc1C(=O)Nc1c[nH]c(=O)[nH]c1=O ... 3.4
CN(C)C(=S)Nc1ccc(Br)c(Cl)c1 ... 37
Cc1cc(/C(N)=N/OC(=O)Nc2ccccc2)no1 ... 15.7
COc1cc(N)c(Cl)cc1C(=O)OCC(=O)NCc1cccs1 ... 20.6
COc1ccc(C)cc1Nc1nc(N)c2cc(OC)c(OC)cc2n1 ... 40.1
Cc1cccnc1NC(=O)CCCc1c[nH]c2ccccc12 ... 36.8
CC(=O)Nc1ccccc1C(=O)C(=O)Nc1cccc(Br)c1 ... 29.1
